Each record here notes measured EC50.
# MEASURED_ON: heteromeric KV7.2/KV7.3 channels (KCNQ2, KCNQ3) (Homo sapiens, UniProt O43525+O43526)
# PROTOCOL_DESCRIPTION: Automated patch-clamp (Sophion Qube 384) potency assay against KV7.2/KV7.3 channels
# CONDITION_LABEL: CHO-K1/Kv7.2/Kv7.3 cells; EC50 from concentration-response of shift in Vhalf, 10 concentrations up to 30 μM; read-out: Kv7.2/7.3 EC50
Use nM as the unit, but write only the number.

Please review the entries below; each comes with its answer.
O=C(NCc1ccnc(OCC(F)(F)F)c1)N[C@@H]1COc2cc(OC(F)(F)F)ccc21    3420
O=C(NCc1ccnc(OCC(F)(F)F)c1)N[C@H]1CCCOc2ccccc21    657
O=C(NCc1ccnc(OCC(F)(F)F)c1)N[C@H]1CCCC[C@@H]1O    11800
O=C(NCc1ccnc(OCC(F)(F)F)c1)N[C@@H]1CCc2c(Cl)cccc21 [Compound 118]    1550
O=C(NCc1ccnc(OCC(F)(F)F)c1)N[C@H]1CCOc2c(F)cccc21    700

## Task Look up EC50 for this compound: COc1cccc2c1CCC[C@H]2NC(=O)NCc1ccnc(OCC(F)(F)F)c1
## Result 2490

## Task Same question, O=C(NCc1ccnc(OCC(F)(F)F)c1)N[C@@H]1COc2ccccc2C1 this time
## Result 290

## Task Thanks! And CN(Cc1ccnc(OCC(F)(F)F)c1)C(=O)NCCC1(C(F)(F)F)CC1 ?
## Result 5130

###

# MEASURED_ON: heteromeric KV7.2/KV7.3 channels (KCNQ2, KCNQ3) (Homo sapiens, UniProt O43525+O43526)
# PROTOCOL_DESCRIPTION: Automated patch-clamp (Sophion Qube 384) potency assay against KV7.2/KV7.3 channels
# CONDITION_LABEL: CHO-K1/Kv7.2/Kv7.3 cells; EC50 from concentration-response of shift in Vhalf, 10 concentrations up to 30 μM; read-out: Kv7.2/7.3 EC50
We begin with a simple list: items and their reported EC50.
// units = nM; emit number, no label

Record excerpt, results attached:
Cc1cc(CNC(=O)NCCC2(C(F)(F)F)CC2)cc(OCC(F)(F)F)n1 [Compound 39]    1470
O=C(NCc1ccnc(OCC(F)(F)F)c1)N[C@@H]1CCCc2cc(F)ccc21 [Compound 191]    1170

## Task I'd like to know its EC50. The compound in question is O=C(NCc1ccnc(OCC(F)(F)F)c1)Nc1cccc2c1OCCC2 [Compound 140]
## Result 3100

## Task What about C[C@H](NC(=O)NCCC1(C(F)(F)F)CC1)c1ccnc(C(F)(F)F)c1 [Compound 97] ?
## Result 2300

## Task // next record O=C(NCc1ccnc(OCC(F)(F)F)c1)NC1(CO)Cc2ccccc2C1 [Compound 146]
## Result 6540

## Task Moving on to the next compound: C[C@H](NC(=O)NC[C@H](O)C(C)(C)C)c1ccnc(OCC(F)(F)C(F)(F)F)c1 [Compound 105]
## Result 1500

## Task // repeat for O=C(NCc1ccnc(OCC(F)(F)F)c1)N[C@H]1CCc2ccc(F)cc21 [Compound 89] and report
## Result 2180

## Task Thanks! And CC1(C)C[C@H](NC(=O)NCc2ccnc(OCC(F)(F)F)c2)c2ccccc21 [Compound 193] ?
## Result 520

## Task O=C(NCc1ccnc(OCC(F)(F)F)c1)N[C@H]1CCc2c(Cl)cccc21 [Compound 143] , same question.
## Result 3970
